Data origin, for the record: the RNAGym collection of RNA variant scans (doi:10.7554/elife.80360)

B1: HDV Ribozyme (parent)
chain: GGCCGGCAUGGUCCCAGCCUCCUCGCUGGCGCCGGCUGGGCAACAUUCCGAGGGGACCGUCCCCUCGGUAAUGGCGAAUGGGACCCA

variants of: B1; test: self-cleavage, relative activity (ratio to wild type); higher = more cleavage; co-transcriptional
Rule: self-cleavage of 0.4 or more gives T; anything lower gives F.

Answered examples (5):
GGCCGGCAUGGUCCCAGCCCCCUCGCUGGCGCCGGCUGGGCAUCAUUCCGAGGGGACCGUCCCCUCGGUAAUGGCGAAUGGGACCCA	F
GGCCGGCAUGGUCCCAGCCUCCUCGCUGGCGCCGGCUGGGCAACAUCCCGAGGGGACCGUCCCCUCGGUAAUAGCGAAUGGGACCCA	T
GGCCGGCAUGAUCCCAGCCUCCUCGCUGGCGCCGGCUGGGCAACAUUCCGAGGGGACCGUCCCCUCGGUAACGGCGAAUGGGACCCA	F
GGCCGGCAUGGUCCCAGCCUCCUCGCUGGCGCCGGCUGGGCAAAAUUCCGAGGGGACCGUCCCCUCGGUAAUAGCGAAUGGGACCCA	T
GGCCGGCAUGGUCCCAGCCUCCUCGCUGGCGCCAGCUGGGCAACAUUCCGAGGGGACCGUCCCAUCGGUAAUGGCGAAUGGGACCCA	F

In: Check if self-cleavage >= 0.4 (inclusive). Item: GGCCGGCAUGGUCCCAGCCUCCUCGCUGGCGCCGGCGGGGCAACAUUCCGAGGGGACCGUCCCCUCGGUAAUGGCGAAUGGCACCCA
Out: F

In: What do you get for GGCCGGCAUGGUCCCAGCCUCCUCGCCGGGGCCGGCUGGGCAACAUUCCGAGGGGACCGUCCCCUCGGUAAUGGCGAAUGGGACCCA ?
Out: F

In: What do you get for GGCCGGCAUGGUGCCAGCCUCCUCGCUGGCGCCGGCUGGGCAACAUUCCGAGGGGACCGUCCCCUCGGUAAUGGCGAAUGCGACCCA ?
Out: F

In: What do you get for GGCCGGCAUGAUCCCAGCCUCCUCGCUAGCGCCGGCUGGGCAACAUUCCGAGGGGACCGUCCCCUCGGUAAUGGCGAAUGGGACCCA ?
Out: F

In: What do you get for GGCCGGCAUGGUCCCAGCCUCCUCGCUGGCGCGGGCUGGGCAACAUUCCGAGGGGACCGUCCCCUCGGAAAUGGCGAAUGGGACCCA ?
Out: F

In: What do you get for GGCCGGCAUGGUCCCAGCCUCCUCGCUGGCGCCGGCUGGGCAACAUUGCGAGGGGACCGUCCCCUCGGUAAUUGCGAAUGGGACCCA ?
Out: T

In: What do you get for GGCCGGCAUGGUCCCAGCCUCCUCGCUGGCGCCGGCUGGGCAACAUUCCGAGGGGACCGUCCCUUCGGUAAUGGCGAAUGCGACCCA ?
Out: F
